This collection of values is drawn from paper PMC13541613.

Target: ZNF721 DBD1 (Homo sapiens, UniProt Q8TF20-2 29-461)
Sequence (Q8TF20 17-449): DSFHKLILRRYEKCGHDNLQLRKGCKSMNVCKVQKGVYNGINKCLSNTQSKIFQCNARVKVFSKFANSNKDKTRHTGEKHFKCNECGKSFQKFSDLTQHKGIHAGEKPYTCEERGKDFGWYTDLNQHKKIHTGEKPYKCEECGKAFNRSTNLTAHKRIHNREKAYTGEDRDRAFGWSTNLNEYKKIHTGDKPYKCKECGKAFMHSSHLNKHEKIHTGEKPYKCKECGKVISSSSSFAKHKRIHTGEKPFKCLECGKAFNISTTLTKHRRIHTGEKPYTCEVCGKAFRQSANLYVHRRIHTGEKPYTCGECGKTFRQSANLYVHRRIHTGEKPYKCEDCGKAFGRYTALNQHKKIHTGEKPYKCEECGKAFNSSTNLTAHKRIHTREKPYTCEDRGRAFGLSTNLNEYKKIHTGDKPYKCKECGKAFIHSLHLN
Test: HT-SELEX; 20 mM HEPES pH 7, 140 mM KCl, 5 mM NaCl, 1 mM K2HPO4, 2 mM MgSO4, 100 uM EGTA, ZnSO4, 0.1% Tween20; room temperature, 1 h; high values mean tight binding
Conditions: protein: ivt; tags: eGFP (N-terminal); dsDNA, one strand shown
Measured Attribute: binding signal
Your reply should be a number followed by the unit it is expressed in.

The cases that follow already have their binding signal on record.
Entry Sequence | Target Or System | binding signal
CCCGACCCCC | ZNF721 DBD1 (Homo sapiens, UniProt Q8TF20-2 29-461) | 0.00628 relative 10-mer count
GGGGTGGGAC | ZNF721 DBD1 (Homo sapiens, UniProt Q8TF20-2 29-461) | 0.00449 relative 10-mer count
CCACCCCCCA | ZNF721 DBD1 (Homo sapiens, UniProt Q8TF20-2 29-461) | 0.0103 relative 10-mer count
CCCCTCCCCA | ZNF721 DBD1 (Homo sapiens, UniProt Q8TF20-2 29-461) | 0.00734 relative 10-mer count
AAGCTATCCC | ZNF721 DBD1 (Homo sapiens, UniProt Q8TF20-2 29-461) | 0.105 relative 10-mer count
CCCCCTTCCC | ZNF721 DBD1 (Homo sapiens, UniProt Q8TF20-2 29-461) | 0.00537 relative 10-mer count
CCCACCCTCA | ZNF721 DBD1 (Homo sapiens, UniProt Q8TF20-2 29-461) | 0.00573 relative 10-mer count
CCCACCCAGC | ZNF721 DBD1 (Homo sapiens, UniProt Q8TF20-2 29-461) | 0.00307 relative 10-mer count

Provide binding signal for all items below, preserving their order.
1. CCCTCCACCA
2. CCCACCATCC
3. CCCGCCCCCA
4. AAAAAAAACA
5. CCCCCACACC
6. CCCCCGCGCC
7. CCCCACCACC
8. CCCCGCCCGC

["0.00436 relative 10-mer count", "0.00647 relative 10-mer count", "0.00706 relative 10-mer count", "0.00592 relative 10-mer count", "0.00821 relative 10-mer count", "0.00381 relative 10-mer count", "0.0213 relative 10-mer count", "0.00417 relative 10-mer count"]
